- test-target: Histone deacetylase HD2 (Zea mays, UniProt Q94F81)
- Sequence (Q94F81 whole entry): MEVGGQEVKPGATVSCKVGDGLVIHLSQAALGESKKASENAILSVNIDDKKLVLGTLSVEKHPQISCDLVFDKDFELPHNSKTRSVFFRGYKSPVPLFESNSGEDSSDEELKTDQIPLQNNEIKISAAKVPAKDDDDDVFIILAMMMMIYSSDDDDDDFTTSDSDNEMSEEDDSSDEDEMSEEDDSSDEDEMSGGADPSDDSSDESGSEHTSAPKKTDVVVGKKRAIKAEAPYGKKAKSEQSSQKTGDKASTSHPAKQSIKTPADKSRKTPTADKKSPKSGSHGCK
Histone deacetylase HD2 (Zea mays, UniProt Q94F81) pIC50, compiled from various sources.
In simple prose, pIC50 is minus the logarithm base ten of a concentration in moles per litre.

[in] Look up pIC50 with Histone deacetylase HD2 (Zea mays, UniProt Q94F81) for this compound: Cn1cc(/C=C/C(=O)c2ccc3ccccc3c2)cc1/C=C/C(=O)NO
[out] 5.74

[in] Look up pIC50 with Histone deacetylase HD2 (Zea mays, UniProt Q94F81) for this compound: Cn1cc(/C=C/C(=O)c2ccc(F)cc2)cc1/C=C/C(=O)NO
[out] 4.45

[in] Look up pIC50 with Histone deacetylase HD2 (Zea mays, UniProt Q94F81) for this compound: NC(=O)[C@H](Cc1ccccc1)NC(=O)CCCCCCC(=O)NO
[out] 5.96

[in] Look up pIC50 with Histone deacetylase HD2 (Zea mays, UniProt Q94F81) for this compound: O=C(CCCCCCC(=O)N[C@@H](Cc1ccccc1)C(=O)NCCc1ccccc1)NO
[out] 6.48

[in] Look up pIC50 with Histone deacetylase HD2 (Zea mays, UniProt Q94F81) for this compound: O=C(CCCCCCC(=O)N[C@@H](Cc1ccccc1)C(=O)NCCCc1ccccc1)NO
[out] 6.42

[in] Look up pIC50 with Histone deacetylase HD2 (Zea mays, UniProt Q94F81) for this compound: Cn1cc(C(=O)c2ccc(Cl)cc2)cc1/C=C/C(=O)NO
[out] 5.62

[in] Look up pIC50 with Histone deacetylase HD2 (Zea mays, UniProt Q94F81) for this compound: O=C(CCCCCCCSc1nc(-c2ccccc2)cc(=O)[nH]1)NO
[out] 7.38

[in] Look up pIC50 with Histone deacetylase HD2 (Zea mays, UniProt Q94F81) for this compound: C/C(=C\c1cc(/C=C/C(=O)NO)n(C)c1)C(=O)c1ccccc1
[out] 6.17

[in] Look up pIC50 with Histone deacetylase HD2 (Zea mays, UniProt Q94F81) for this compound: Cn1cc(/C=C/C(=O)c2ccccc2F)cc1/C=C/C(=O)NO
[out] 5.15

[in] Look up pIC50 with Histone deacetylase HD2 (Zea mays, UniProt Q94F81) for this compound: COC(=O)[C@@H](Cc1ccccc1)NC(=O)CCCCCCC(=O)NO
[out] 6.12
